Recorded values, source PubChem BioAssay (NCI).

Tested on: BT-549 breast
Assay: NCI-60 one-dose screen, 48 h (100 = growth as untreated, 0 = no growth, -100 = all killed)
Conditions: 10 µM unless noted
Description: Growth inhibition of the BT-549 human tumor cell line is measured as a screen for anti-cancer activity. Cells are grown in 96 well plates and exposed to the test compound for 48 hours. Compounds are tested at a single concentration, which is 10^-5 M for most compounds. The reported endpoint is percent growth (GI% or GIPRCNT), where numbers from 0 - 100% represent growth inhibition, and numbers from -100% - 0 represent cell death. For example, a value of 40 represents 60% growth inhibition. […]
The panel holds about 83,000 compounds, 20% with a hit somewhere; the sample as a whole holds those more often. The source made the active and inactive calls. How the source made its calls: active means growth percent below 10; inactive means the rest.
# growth listing for each entry below

[
  {
    "compound": "COC(=O)CCOc1ccccc1",
    "growth": "91.7% (inactive)"
  },
  {
    "compound": "O=C1c2ccccc2C(c2ccccc2)C1c1ccccc1 (stereo not given)",
    "growth": "131% (inactive)"
  },
  {
    "compound": "N#Cc1c(N)nc2c(c(-c3ccc(Cl)cc3)nn2-c2ccccc2)c1C#N",
    "growth": "94.2% [100 µM] (inactive)"
  },
  {
    "compound": "COc1ccc([N+](=O)[O-])cc1OC",
    "growth": "110% (inactive)"
  },
  {
    "compound": "O=[N+]([O-])c1ccc(N/N=C/C2CCCCCC2)c([N+](=O)[O-])c1",
    "growth": "91% (inactive)"
  },
  {
    "compound": "CCOCCC(=O)O",
    "growth": "107% (inactive)"
  }
]

Identify the reported growth for the following entry. Nc1c(S(=O)(=O)O)cc(Br)c2c1C(=O)c1ccccc1C2=O
110% (inactive)

Note growth for the compound shown: Cc1cc(=NO)cc(C)n1O
82.8% (inactive)

Look up and state reported growth for C/C=C/C(=O)OCCCCCCCCCCCC
97% (inactive)

Report growth for CCN(CC)CCO/N=C1\CC(c2ccc(OC)c(OC)c2)Oc2ccccc21 (stereo not given)
94% (inactive)

State its growth: CCCCCCC(C)CC1=C(O)c2ccccc2C(=O)C1=O (stereo not given)
49% (inactive)

For CC(C)=NOC(C)C(=O)O (stereo not given) , write its growth.
98% (inactive)

Using the record for COc1cc2c(cc1O)C(=O)CCCC2 , state its measured growth.
78% (inactive)

Annotate the compound COc1cc(Cl)ccc1C with its measured growth.
102% (inactive)

Give me measured growth, please, for this compound: O=c1[nH]c(=S)[nH]n1C(=S)n1[nH]c(=S)[nH]c1=O
108% (inactive)

Provide growth value for the following compound: CC1(C)CC(=O)NC1=O
104% (inactive)
